System: SK-BR-3
Assay: Antiproliferative activity against human SKBR3 cells incubated for 5 days by SRB assay
Type: functional, cell-based
Conditions: SK-BR-3, 120 h
Numbered stars: 1 amine (or outer) side, 2 acyl side, 3 side chain; on linkers, the order of the positions; unused ones are H or OH. Square brackets hold non-standard residues; d marks the D form. Peptide text beside a SMILES is read from it. * marks the point of attachment. X6 = CCCC[C@H](O)C[C@@H](C)C[C@H](N[*:1])C(=O)[*:2]; X1 = CCCCCC[C@@H](C)C[C@H](N[*:1])C(=O)[*:2]; NH((S)CH(Me)CH2NHC2H4OH) = C[C@@H](CNCCO)N*; Aib = CC(C)(N)C(=O)O; Butyryl = CCCC(=O)*; βAla = NCCC(=O)O
IC50: recorded values

{"compound": "CCCCCC[C@@H](C)C[C@H](NC(=O)C(C)(C)NC(=O)C(C)(C)NC(=O)[C@H](CCCCN)NC(=O)[C@@H]1CCCN1C(=O)CCC)C(=O)N[C@@H](CC(C)C)C(=O)NC(C)(C)C(=O)N[C@@H](CC(C)C)C(=O)NCCC(=O)N[C@@H](C)CNCCO (Butyryl-PK[Aib][Aib][X1]L[Aib]L[βAla]-{NH((S)CH(Me)CH2NHC2H4OH)})", "system name": "SK-BR-3", "IC50": "> 1000 nM"}

Query: Quick one: IC50 for CCCCCC[C@@H](C)C[C@H](NC(=O)C(C)(C)NC(=O)C(C)(C)NC(=O)[C@H](CO)NC(=O)[C@@H]1CCCN1C(=O)CCC)C(=O)N[C@@H](CC(C)C)C(=O)NC(C)(C)C(=O)N[C@@H](CC(C)C)C(=O)NCCC(=O)N[C@@H](C)CNCCO (Butyryl-PS[Aib][Aib][X1]L[Aib]L[βAla]-{NH((S)CH(Me)CH2NHC2H4OH)}) ?
Result: > 500 nM

Query: Given the compound CCCCCC[C@@H](C)C[C@H](NC(=O)C(C)(C)NC(=O)C(C)(C)NC(=O)[C@H](C[C@H](C)C[C@@H](O)CCCC)NC(=O)[C@@H]1CCCN1C(=O)CCC)C(=O)N[C@@H](CC(C)C)C(=O)NC(C)(C)C(=O)N[C@@H](CC(C)C)C(=O)NCCC(=O)N[C@@H](C)CNCCO (Butyryl-P[X6][Aib][Aib][X1]L[Aib]L[βAla]-{NH((S)CH(Me)CH2NHC2H4OH)}) , what is its reported IC50?
Result: > 500 nM

Where these numbers come from: ChEMBL document CHEMBL4350995
